Hello, the source for this data is the EternaBench riboswitch data, in case you need it.

tested on: MS2 coat protein; test: apparent Kd, MS2 coat protein; higher = weaker binding; RNA-MaP array; FMN 200 µM where present; settings: designed as: OFF switch for flavin mononucleotide; no ligand
Readout name: apparent Kd

Sample records with apparent Kd:
Input sequence: CUUUAGUCAGGAUAUACAUGAGGAUCACCCAUGUAAAAUUUUAAUUUAAUUUUAAGGUGUAGAAGGGACCACCC
Assay system: MS2 coat protein
Value observed: 0.0334 µM
--
Input sequence: GCACUGGAUGUAGGAUAUCAGGACGAUAAGUCCUGAGAAGGACAUGAGGAUCACCCAUGUGCUCAAUAACCAGUGCAUAAUAUA
Assay system: MS2 coat protein
Value observed: 0.0145 µM
--
Input sequence: GAAUGUAAAGAGAAGGGCUACUGGUUGAAACCUGCGGCCUCUGGAACAUGAGGAUCACCCAUGUAGCAGGAUAUCUUUGCGUCA
Assay system: MS2 coat protein
Value observed: 0.192 µM

The recorded apparent Kd for entry "CCAUAUAGGUAGGAUAUCGAUUUUAAUUAAUAUCGAGAAGGGUCAACAUGAGGAUCACCCAUGUCAGCAUGUAC" equals 0.0804 µM

The recorded apparent Kd for entry "CAUAAGAUAGGAUAUACAGGCCCGUCUUUAUAUUGAUCCCGACAUGAGGAUCACCCAUGUAGAAGGAUCAUAUG" equals 0.0137 µM

The recorded apparent Kd for entry "UUCUUUGUUGUGAGGAUAUCGUAUUCUUUUUGUUACGAGAAGGCACAUGAGGAUCACCCAUGUUUCUUGAUGUU" equals 0.0169 µM
